# Tested on: ATP;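 note: ATP exposure 15 min at 22 °C before imaging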
# ASSAY INFO: switch fluorescence ratio, 500 uM ATP over buffer (Cy3 cluster intensity, sum of 5 cycles each) (fold (ratio)); higher = stronger signal-on switching upon ATP binding; sequences stand for … in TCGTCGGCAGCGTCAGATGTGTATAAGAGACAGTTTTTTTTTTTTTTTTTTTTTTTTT…TC
# PROTOCOL CONDITIONS: aptamer strand: ATP DNA aptamer (quencher-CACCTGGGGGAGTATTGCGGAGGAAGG + anchor), 100 nM annealed; ATP concentration: 500 uM
Answer false if switch fluorescence ratio is under 1, and true if it is 1 or more.

# CONSTRUCT SEQUENCE, CLASS
measured = [
    ("GGTACTATCG", "false"),
    ("TCTGATGGAA", "true"),
    ("TGGCTGGGGG", "true"),
    ("TGGGTGGGTA", "true"),
    ("CAGTGGGGTA", "false"),
]

* * *

# maps each entry to its switch fluorescence ratio
# Test system: ATP;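 note: ATP exposure 15 min at 22 °C before imaging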
# ASSAY INFO: switch fluorescence ratio, 500 uM ATP over buffer (Cy3 cluster intensity, sum of 5 cycles each) (fold (ratio)); higher = stronger signal-on switching upon ATP binding; sequences stand for … in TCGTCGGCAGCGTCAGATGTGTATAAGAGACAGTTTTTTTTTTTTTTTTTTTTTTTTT…TC
# PROTOCOL CONDITIONS: aptamer strand: ATP DNA aptamer (quencher-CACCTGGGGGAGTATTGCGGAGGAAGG + anchor), 100 nM annealed; ATP concentration: 500 uM
EXPERIMENTAL READOUT: switch fluorescence ratio

# CONSTRUCT SEQUENCE, TESTED ON, DATA VALUE
data = [
    ("AATGGAGGGT", "ATP", 1.03),
    ("AGGATAATGA", "ATP", 0.998),
    ("CCCCATTTTA", "ATP", 1),
    ("GGGGGTCGC", "ATP", 1),
    ("CATTGAGGGT", "ATP", 0.968),
    ("TGGTATGTGA", "ATP", 1.01),
    ("TGTAGGGCGA", "ATP", 0.99),
    ("TAGTTGGGCA", "ATP", 0.987),
    ("ATGCATTGGA", "ATP", 1.01),
    ("TATCTATTTT", "ATP", 0.964),
    ("GGGGCCCGAA", "ATP", 0.981),
    ("GACGATGGGT", "ATP", 1.03),
    ("GTATTTTAGG", "ATP", 0.999),
    ("TAATTTCTAC", "ATP", 1.01),
    ("TTTGTATTCC", "ATP", 0.991),
    ("GGCAATTTTT", "ATP", 0.992),
    ("GGCAAATCGG", "ATP", 0.995),
    ("CTTGGGTTGG", "ATP", 0.997),
    ("CGTTTGGTGG", "ATP", 1.01),
    ("GTGGTGGGTA", "ATP", 0.947),
    ("GTTCAGTTGC", "ATP", 0.996),
    ("CCGTAGTGGT", "ATP", 2.9),
    ("AGTACGGTGC", "ATP", 1.02),
    ("GGAGAGCATT", "ATP", 1.04),
    ("GACGGGGGGT", "ATP", 1),
    ("TTTGCAGGGG", "ATP", 1.06),
    ("CAAGGTAAGG", "ATP", 0.984),
    ("CCGGGGTTGT", "ATP", 1.16),
    ("CTAGCCGGGA", "ATP", 1.02),
    ("GCGCCCATCT", "ATP", 1.02),
    ("ACGTGTTCAT", "ATP", 0.983),
    ("TTGGGGCAAC", "ATP", 1.03),
    ("CGGACCGATG", "ATP", 1.01),
    ("GTGTTGTCGG", "ATP", 1.01),
    ("GATAAAGGGT", "ATP", 1.01),
    ("GATCCTTGGG", "ATP", 1.02),
]

* * *

# switch fluorescence ratio per entry
# Test system: ATP;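 note: ATP exposure 15 min at 22 °C before imaging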
# ASSAY INFO: switch fluorescence ratio, 500 uM ATP over buffer (Cy3 cluster intensity, sum of 5 cycles each) (fold (ratio)); higher = stronger signal-on switching upon ATP binding; sequences stand for … in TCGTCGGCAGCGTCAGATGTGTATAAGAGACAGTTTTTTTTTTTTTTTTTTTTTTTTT…TC
# PROTOCOL CONDITIONS: aptamer strand: ATP DNA aptamer (quencher-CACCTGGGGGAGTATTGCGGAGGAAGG + anchor), 100 nM annealed; ATP concentration: 500 uM
EXPERIMENTAL READOUT: switch fluorescence ratio

# CONSTRUCT SEQUENCE, DATA VALUE
records = [
    ("GTAGTATTTT", 0.994),
    ("CTAATATTAT", 1.01),
    ("TCAGTTTGGT", 0.99),
    ("GGGGGTTATG", 1.01),
    ("GGTTGATCCG", 1.01),
    ("TAACAAGGCA", 0.985),
    ("GGAAAAGGGA", 1.01),
]

* * *

# System: ATP;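 note: ATP exposure 15 min at 22 °C before imaging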
# ASSAY INFO: switch fluorescence ratio, 500 uM ATP over buffer (Cy3 cluster intensity, sum of 5 cycles each) (fold (ratio)); higher = stronger signal-on switching upon ATP binding; sequences stand for … in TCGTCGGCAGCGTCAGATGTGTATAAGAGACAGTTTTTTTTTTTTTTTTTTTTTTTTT…TC
# PROTOCOL CONDITIONS: aptamer strand: ATP DNA aptamer (quencher-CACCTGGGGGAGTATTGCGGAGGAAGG + anchor), 100 nM annealed; ATP concentration: 500 uM
Entries and their measured switch fluorescence ratio follow.

# CONSTRUCT SEQUENCE, switch fluorescence ratio
data = [
    ("TTGTTTGTGC", 1.02),
    ("GTTGTAGGGT", 0.976),
    ("TTTCTGGTCG", 0.964),
    ("CTGATATTGT", 0.984),
    ("TTTGGACAAG", 1),
    ("TGTTATATAG", 1.01),
    ("GCTGGTGATC", 1.02),
    ("GGGGAAGATA", 0.986),
]

* * *

# Test system: ATP;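 note: ATP exposure 15 min at 22 °C before imaging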
# ASSAY INFO: switch fluorescence ratio, 500 uM ATP over buffer (Cy3 cluster intensity, sum of 5 cycles each) (fold (ratio)); higher = stronger signal-on switching upon ATP binding; sequences stand for … in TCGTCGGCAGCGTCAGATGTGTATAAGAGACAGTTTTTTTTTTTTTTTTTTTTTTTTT…TC
# PROTOCOL CONDITIONS: aptamer strand: ATP DNA aptamer (quencher-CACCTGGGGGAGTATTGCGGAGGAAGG + anchor), 100 nM annealed; ATP concentration: 500 uM

# CONSTRUCT SEQUENCE, switch fluorescence ratio
data = [
    ("GATGTGATTC", 1.04),
    ("AGATGATCAG", 0.982),
    ("CTGAGAGACA", 0.991),
    ("AAGGGTGGTA", 0.981),
    ("GACGTGGTAG", 1.03),
    ("TAGGGGAATG", 1.02),
    ("ATTACAATAG", 1.1),
    ("AGACCTCTTT", 0.988),
    ("TGCGTTTGTT", 0.996),
    ("GACACCAAAT", 1.04),
]

* * *

# Tested on: ATP;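 note: ATP exposure 15 min at 22 °C before imaging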
# ASSAY INFO: switch fluorescence ratio, 500 uM ATP over buffer (Cy3 cluster intensity, sum of 5 cycles each) (fold (ratio)); higher = stronger signal-on switching upon ATP binding; sequences stand for … in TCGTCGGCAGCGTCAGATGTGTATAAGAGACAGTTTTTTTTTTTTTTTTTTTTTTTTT…TC
# PROTOCOL CONDITIONS: aptamer strand: ATP DNA aptamer (quencher-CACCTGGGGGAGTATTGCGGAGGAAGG + anchor), 100 nM annealed; ATP concentration: 500 uM
EXPERIMENTAL READOUT: switch fluorescence ratio

# CONSTRUCT SEQUENCE, EXPERIMENTAL READOUT, DATA VALUE
records = [
    ("TAGCGGAAAA", "switch fluorescence ratio", 1.02),
    ("TTCTATTGTT", "switch fluorescence ratio", 0.999),
    ("TCCATAAAAA", "switch fluorescence ratio", 0.999),
]

* * *

Recorded switch fluorescence ratio for the following sequences
# Test system: ATP;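 note: ATP exposure 15 min at 22 °C before imaging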
# ASSAY INFO: switch fluorescence ratio, 500 uM ATP over buffer (Cy3 cluster intensity, sum of 5 cycles each) (fold (ratio)); higher = stronger signal-on switching upon ATP binding; sequences stand for … in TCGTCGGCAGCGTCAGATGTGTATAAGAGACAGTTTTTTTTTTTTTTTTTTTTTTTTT…TC
# PROTOCOL CONDITIONS: aptamer strand: ATP DNA aptamer (quencher-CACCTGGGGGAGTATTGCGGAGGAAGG + anchor), 100 nM annealed; ATP concentration: 500 uM
EXPERIMENTAL READOUT: switch fluorescence ratio

# CONSTRUCT SEQUENCE, DATA VALUE
rows = [
    ("ATATGGTCTA", 0.999),
    ("GGTTTAGCTG", 0.984),
    ("TCCCGGGAAA", 1.04),
    ("TCAATATTGG", 1.01),
    ("TTCGGGTGTG", 0.999),
    ("TCGGGGGAAA", 0.994),
    ("CGGGCGGGAT", 1.04),
    ("GGTCCTACTG", 1.01),
    ("TTTTTCTTCT", 1.31),
    ("AGGTTTTGGG", 0.979),
    ("TCGATTGGTG", 1.01),
    ("TGCAGCATTA", 2.31),
    ("CCAGGCGATG", 1.05),
    ("TATTGTGACT", 1.02),
    ("ATAATTCTAT", 0.982),
    ("CAATAAGATT", 1.02),
    ("CGCGGTGCGG", 1.01),
    ("TATTGGGGGA", 0.995),
    ("TTTAGGGAAA", 0.961),
    ("ATTTGAAGCG", 0.998),
    ("AACGTTCATG", 1.02),
    ("CGCGAGAGGA", 1.01),
    ("TTTTACAAGA", 0.996),
    ("ATATACCGTC", 1.05),
    ("TTATGGTGAA", 0.956),
    ("AAATTCGAAT", 1.02),
    ("GTGGGGGATT", 0.996),
    ("TAAGGTACTG", 0.984),
    ("TATGTGGGAA", 1.01),
    ("CGGTTTATGA", 0.968),
    ("GGGACCTAAG", 1),
    ("GCTCTGGGTA", 1.05),
    ("GATCGACTTT", 0.958),
    ("CGCGAAAATG", 1.02),
    ("GATTGAATAT", 0.983),
    ("TATTGTGGCT", 0.979),
    ("CTTTGTTGG", 0.965),
    ("CAGCTAAAGG", 1.02),
    ("CGGGTGGTTC", 0.994),
    ("CGTGGGAATT", 0.977),
    ("GGTACTTGGG", 0.984),
    ("TTGGGACTTC", 1.03),
    ("GAGAGTGGGC", 1),
    ("TTTTACATTT", 1),
    ("ATCGTTCGTG", 0.997),
    ("GTGGTCAGGC", 0.975),
    ("TTAAGCTTGA", 1.01),
    ("TTGATAGTAA", 1.04),
    ("GCTGTAATCT", 0.999),
    ("TAGTTTTGAA", 0.997),
    ("TCATGGCGGT", 1.01),
    ("TAGAATGTT", 1.01),
    ("GCATGTGGGC", 0.967),
    ("GATCATAATA", 0.995),
    ("AATAAGCACA", 1.2),
    ("CGATATTTGG", 1),
    ("CGGTAATGTT", 1),
    ("GAAAAAGGAA", 1.02),
    ("CGTGTTTGCC", 1),
    ("TGATATTGG", 0.971),
    ("GGGGTAAAAT", 1.01),
    ("AACGAATTAG", 1.04),
    ("GGAGTTGATT", 0.981),
    ("ATATCCCTCG", 1.01),
    ("CAGCATCATC", 1.24),
    ("TGTGTTTTCG", 1),
    ("GGGTACTGTG", 0.971),
    ("TTTAATAATT", 1.03),
    ("GGGCCATGGT", 0.981),
    ("TGGAATGCGC", 1.24),
    ("GTGGGAGTTG", 0.969),
    ("GGGGTGAGCT", 0.981),
    ("CATTGGTGAG", 0.992),
    ("AGTCGTTTTT", 0.98),
    ("CATGATAGGG", 1.01),
    ("CATGTATTAT", 0.985),
    ("GAACCAGTAC", 1.82),
]

Cited source for all entries: the supplement of paper PMC10126150
